Entries and their melting point

Answered examples (5):
                         compound_structure  parameter_measured  observed_value
0      CCOC(=O)CCCc1ccc(N2Cc3ccccc3C2=O)cc1       melting point     94 to 96 °C
1   CCCCCCCc1ccc(N2Cc3ccc(N(C)C)cc3C2=O)cc1       melting point   101 to 102 °C
2     COC(=O)COc1ccc(N2Cc3ccc(N)cc3C2=O)cc1       melting point   197 to 198 °C
3  CCOC(=O)CCCc1ccc(NC(=O)c2cc([N+](=O)[O-])ccc2C)cc1       melting point   108 to 109 °C
4  CCCCCCCCc1ccc(N2Cc3cc(N(C)C)ccc3C2=O)cc1       melting point   128 to 129 °C

Query (molecule): "CCCCCCCCc1ccc(N2Cc3ccc(N(C)C)cc3C2=O)cc1" ; field requested: melting point 100 to 101 °C

Query (molecule): "CCCc1ccc(N2Cc3cc(N(C)C)ccc3C2=O)cc1" ; field requested: melting point 160 to 161 °C

Query (molecule): "CN(C)c1ccc2c(c1)C(=O)N(c1ccc(CCCC(=O)O)cc1)C2" ; field requested: melting point 186 to 187 °C

Query (molecule): "CCOC(=O)C=Cc1ccc(N2Cc3ccccc3C2=O)cc1" ; field requested: melting point 184 to 185 °C

Query (molecule): "COC(=O)COc1ccc(N2Cc3ccc([N+](=O)[O-])cc3C2=O)cc1" ; field requested: melting point 238 to 239 °C

Query (molecule): "COc1ccc(N2Cc3cccc(N(C)C)c3C2=O)cc1" ; field requested: melting point 145 to 146 °C

----------
parameter.measured: melting point

>>> print(df.to_string())
                                   molecule  observed_value
0  Cc1ccc([N+](=O)[O-])cc1C(=O)Nc1ccc(CCCC(=O)O)cc1 [Compound 38]   172 to 173 °C
1  COC(=O)COc1ccc(N2Cc3ccc(N(C)C)cc3C2=O)cc1 [Compound 27]   167 to 168 °C
2  O=C(O)CCCc1ccc(N2Cc3ccc(F)cc3C2=O)cc1 [Compound 29]   172 to 173 °C
3  CC(C)c1ccc(N2Cc3cc(N(C)C)ccc3C2=O)cc1 [Compound 5]   167 to 169 °C

Query (molecule): CN(C)c1cccc(C(=O)Nc2ccc(CCCC(=O)O)cc2)c1 [Compound 34] ; field requested: melting point 127 to 128 °C

Query (molecule): CCCCc1ccc(N2Cc3cc(N(C)C)ccc3C2=O)cc1 [Compound 3] ; field requested: melting point 133 to 134 °C

Query (molecule): CC(C)c1ccc(N2Cc3ccc(N(C)C)cc3C2=O)cc1 [Compound 6] ; field requested: melting point 169 to 170 °C

----------
Entries and their melting point

                         compound_structure  parameter_measured  observed_value
0  CCOC(=O)CCCc1ccc(NC(=O)c2cc(C)ccc2[N+](=O)[O-])cc1       melting point   126 to 127 °C
1  CN(C)c1ccc2c(c1)C(=O)N(c1ccc(OCC(=O)O)cc1)C2       melting point   206 to 208 °C
2        O=C(O)CCCc1ccc(N2Cc3ccccc3C2=O)cc1       melting point   128 to 129 °C

Query (compound): "COC(=O)CCc1ccc(N2Cc3ccc(N(C)C)cc3C2=O)cc1" ; field requested: melting point 123 to 124 °C

Query (compound): "CN(C)c1cccc2c1C(=O)N(c1ccccc1)C2" ; field requested: melting point 58 to 60 °C

Query (compound): "CCCCCCCNc1cccc2c1CN(c1cc(C)cc(C)c1)C2=O" ; field requested: melting point 68 to 69 °C

Query (compound): "CCOC(=O)CCCc1ccc(N2Cc3cc(N(C)C)ccc3C2=O)cc1" ; field requested: melting point 116 to 117 °C

Query (compound): "CN(C)c1ccc2c(c1)CN(c1ccc(CCCC(=O)O)cc1)C2=O" ; field requested: melting point 179 to 180 °C

Query (compound): "CN(C)c1ccc2c(c1)C(=O)N(c1ccc(CCC(=O)O)cc1)C2" ; field requested: melting point 200 to 201 °C

Query (compound): "CCCc1ccc(N2Cc3ccc(N(C)C)cc3C2=O)cc1" ; field requested: melting point 141 to 142 °C

Query (compound): "Cc1ccc([N+](=O)[O-])c(C(=O)Nc2ccc(CCCC(=O)O)cc2)c1" ; field requested: melting point 152 to 153 °C

Query (compound): "CCCCCCCc1ccc(N2Cc3cc(N(C)C)ccc3C2=O)cc1" ; field requested: melting point 133 to 134 °C
